Recorded max response values for a group of molecules are listed next.
PROCEDURE_DETAILS: Cycloheximide Counterscreen for Small Molecule Inhibitors of Shiga Toxin; note: read at 38.3 µM for the half of the compounds with a filed dose
CONDITIONS_USED: cell reporter, cycloheximide protein synthesis inhibition counterscreen; active compounds read high
Screen size: about 300,000 compounds; about 37,000 (12%) were called active. The full list was thinned out, with actives kept by preference.

{"MOLECULE": "CC(OC(=O)c1ccc2ccccc2n1)C(=O)c1ccccc1 (centres undefined)", "max response, %": 25.1}
{"MOLECULE": "O=C(Oc1ccc([N+](=O)[O-])cc1)c1ccc(Cl)c(S(=O)(=O)N2CCCCC2)c1", "max response, %": 7.89}
{"MOLECULE": "CC(=O)c1ccc2c(c1)c1ccccc1n2CC(C)C", "max response, %": 3.09}
{"MOLECULE": "COc1ccc(C2=NOC(COC(=O)c3ccc4ccccc4n3)C2)cc1 (centres undefined)", "max response, %": 12.5}
{"MOLECULE": "CC(=O)Nc1ccc(Nc2c([N+](=O)[O-])cc(S(C)(=O)=O)cc2[N+](=O)[O-])cc1", "max response, %": -3.33}
{"MOLECULE": "CN1CC(c2ccccc2)C2(COc3ccccc3C2=O)C12C(=O)Nc1ccccc12 (centres undefined)", "max response, %": -3.96}
{"MOLECULE": "CCc1ccccc1NC(=O)[C@@H]1CCC(=O)N1C1OC(=O)c2c1ccc(OC)c2OC (some centres undefined)", "max response, %": -2.07}
{"MOLECULE": "CCOc1cc(C)c(S(=O)(=O)NCc2ccccn2)cc1C", "max response, %": -2.56}
{"MOLECULE": "COc1cc(Nc2nc3ccc(Cl)cc3n3cnnc23)cc(OC)c1OC", "max response, %": -8.65}
{"MOLECULE": "CCCCC(C(=O)OCC(=O)c1ccc(OC)cc1)N1C(=O)c2ccccc2C1=O (centres undefined)", "max response, %": 1.39}
{"MOLECULE": "CC(=O)c1ccc2c(ccc3ccccc32)c1", "max response, %": 67.2}
{"MOLECULE": "COc1ccc(C(C[N+](=O)[O-])n2nc(C)cc2C)cc1 (centres undefined)", "max response, %": -0.331}
{"MOLECULE": "CC(=O)N1CCN(C(=O)C2(NC(=O)Nc3ccc(C)cc3)CCCCC2)CC1", "max response, %": 6.9}
{"MOLECULE": "O=C(c1cccs1)N(C(=O)c1cccs1)c1ccccn1", "max response, %": 21.4}
{"MOLECULE": "COC(=O)c1sc(N2CCN(Cc3ccccc3)CC2)nc1N", "max response, %": -1.52}
{"MOLECULE": "CCc1nc2ccccc2c(C(=O)OC2CCCCC2=O)c1C (centres undefined)", "max response, %": 8.91}
{"MOLECULE": "CN(C)/C=C(/C(=O)c1ccc(Cl)cc1)S(=O)(=O)c1ccccc1", "max response, %": 50.5}
{"MOLECULE": "COc1ccccc1NC(=O)CCC(=O)OC(C)C(=O)c1ccccc1 (centres undefined)", "max response, %": -2.18}
{"MOLECULE": "CCCCOC(=O)CCCc1ccc([N+](=O)[O-])cc1[N+](=O)[O-]", "max response, %": -1.18}
{"MOLECULE": "Nc1nc(NCC2CCCO2)nc(Nc2ccccc2F)c1[N+](=O)[O-] (centres undefined)", "max response, %": -2.31}
{"MOLECULE": "CCN(CC)c1ccc(NC(=O)CCc2nnc3ccc(N4CCCCC4)nn23)c(C)c1", "max response, %": -1.8}
{"MOLECULE": "CCOC(=O)/C(=C\\c1ccc([N+](=O)[O-])cc1)C(=O)c1cc(C(C)=O)c(Nc2ccccc2)s1", "max response, %": -4.46}
{"MOLECULE": "O=S(=O)(c1ccc(Br)cc1)c1nc(-c2ccccc2)oc1N1CCOCC1", "max response, %": 4.42}
{"MOLECULE": "[O-][n+]1onc2c1CCc1[nH]c(-c3ccccc3)nc1-2", "max response, %": -2.38}
{"MOLECULE": "COc1ccc(CN(C(=O)c2cccs2)c2nccs2)cc1OC", "max response, %": -2.68}
{"MOLECULE": "O=C(NNS(=O)(=O)c1ccc(F)cc1)C1CCCCC1", "max response, %": -1.22}
{"MOLECULE": "CC(NC(=O)CCC(=O)N1CCN(S(=O)(=O)c2ccc(Cl)cc2)CC1)c1ccccc1 (centres undefined)", "max response, %": 4.89}
{"MOLECULE": "CCCOc1ccc(Cc2c(Cl)nc(SC)nc2NC)cc1", "max response, %": -0.737}
{"MOLECULE": "Oc1ccc(-c2c(-c3ccccc3)nn3c(C(F)(F)F)cc(C(F)(F)F)nc23)cc1", "max response, %": -7.49}
{"MOLECULE": "COc1ccc2c(C)cc3nnnn3c2c1", "max response, %": -1.91}
{"MOLECULE": "COc1ccc2c(c1OC)C(=O)OC2c1c(O)nc(SC)n(-c2ccccc2)c1=O (centres undefined)", "max response, %": -1.46}
{"MOLECULE": "CN(C)/C=C(/C(=O)c1ccccc1Cl)S(C)(=O)=O", "max response, %": -0.829}
{"MOLECULE": "COc1ccc(OC)c(CCNC(=O)CCn2ccc3cc(S(=O)(=O)N4CCCC4)ccc32)c1", "max response, %": -1.39}
{"MOLECULE": "Cc1nc(C(=O)N2CCCC(C(=O)c3ccc(Cl)cc3)C2)cs1 (centres undefined)", "max response, %": 0.775}

====

PROCEDURE_DETAILS: Cycloheximide Counterscreen for Small Molecule Inhibitors of Shiga Toxin; note: read at 38.3 µM for the half of the compounds with a filed dose
CONDITIONS_USED: cell reporter, cycloheximide protein synthesis inhibition counterscreen; active compounds read high
The campaign covered roughly 300,000 compounds. About 37,000 (12%) were called active. For the sample, actives were picked, then their nearest neighbours and some compounds at random.

{"STRUCTURE_SMILES": "Cc1ccc(S(=O)(=O)Nc2ccc3ncccc3c2)cc1", "max response (%)": -2.27}
{"STRUCTURE_SMILES": "COC(=O)c1ccc(S(=O)(=O)N2CCc3ccccc3C2)cc1", "max response (%)": -0.876}
{"STRUCTURE_SMILES": "O=C(c1cncc(Br)c1)N1CCN(c2ccc([N+](=O)[O-])cc2)CC1", "max response (%)": -2.1}

====

PROCEDURE_DETAILS: Cycloheximide Counterscreen for Small Molecule Inhibitors of Shiga Toxin; note: read at 38.3 µM for the half of the compounds with a filed dose
CONDITIONS_USED: cell reporter, cycloheximide protein synthesis inhibition counterscreen
In all, about 300,000 compounds went through this assay and about 37,000 (12%) were called active. No stated cut-off is given here; in the data, active means max response mostly above about 13% (no sharp cut-off); inactive means mostly below about 14%. The sample holds actives, similar compounds and a random draw of the others, so the mix is not that of the screen.
Outcomes: Y (active), N (inactive)

{"COMPOUND": "C[C@H](C(=O)CC(=O)OC(C)(C)C)[C@H](O)c1ccc(C(F)(F)F)cc1", "CAT": "N"}
{"COMPOUND": "O=C(CN1CCN(C(=O)C2CCCO2)CC1)Nc1c(Cl)cccc1Cl (configuration not stated)", "CAT": "N"}
{"COMPOUND": "COc1cccc(NC(=O)C2C(c3ccccc3)C2(Cl)Cl)c1 (configuration not stated)", "CAT": "N"}
{"COMPOUND": "Cc1noc(C)c1CCC(=O)O", "CAT": "N"}
{"COMPOUND": "CC(C)Oc1ccc(C(CC(=O)N2CCOCC2)C(C)C)cc1 (configuration not stated)", "CAT": "N"}
{"COMPOUND": "CCn1c(SCC(=O)Nc2nccs2)nnc1-c1ccco1", "CAT": "N"}
{"COMPOUND": "Cc1[nH]c2ccccc2c1SCC(=O)Nc1nccs1", "CAT": "Y"}

====

PROCEDURE_DETAILS: Cycloheximide Counterscreen for Small Molecule Inhibitors of Shiga Toxin; note: read at 38.3 µM for the half of the compounds with a filed dose
CONDITIONS_USED: cell reporter, cycloheximide protein synthesis inhibition counterscreen
The campaign covered roughly 300,000 compounds. About 37,000 (12%) were called active. Rule as the data show it: active = max response mostly above about 13% (no sharp cut-off); inactive = mostly below about 14%. The list comes from a sample in which actives are over-represented; it also holds close analogues and randomly drawn compounds.
Outcomes: true (1) = active, false (0) = inactive

{"COMPOUND": "O=C(Cc1ccc(Br)cc1)NCCN1CCOCC1", "CAT": "false (0)"}
{"COMPOUND": "COc1cc(/C=N/O)cc(Br)c1OS(=O)(=O)c1ccc(C)cc1", "CAT": "false (0)"}
{"COMPOUND": "Cc1nnnn1/C(=C\\c1ccccc1)C(=O)OCC(=O)N1CC2(C)CC1CC(C)(C)C2 (stereo unspecified)", "CAT": "false (0)"}
{"COMPOUND": "Cc1ccc(S(=O)(=O)NCC(=O)N(CC(=O)NCC2CCCO2)c2cccc(F)c2)cc1 (stereo unspecified)", "CAT": "false (0)"}
{"COMPOUND": "O=C(COC(=O)c1n[nH]c2ccccc12)NCc1ccccc1", "CAT": "false (0)"}
{"COMPOUND": "Cn1c2ccc(F)cc2c2nnc(NN)nc21", "CAT": "false (0)"}
{"COMPOUND": "Cc1ccc(Nc2nc(C)cc(C)c2C(N)=O)cc1", "CAT": "false (0)"}
{"COMPOUND": "O=C(NCCN1CCOCC1)c1ccc(/C=C2\\Sc3ccccc3N(Cc3ccc(F)cc3)C2=O)cc1", "CAT": "false (0)"}
{"COMPOUND": "CCN(C(=O)CSc1nc2ccccc2n1CC)C1CCS(=O)(=O)C1 (stereo unspecified)", "CAT": "false (0)"}
{"COMPOUND": "COc1ccc(-c2cc(=O)oc3cc(OC(C)C(=O)Nc4ccc(CN5CCOCC5)cc4)ccc23)cc1 (stereo unspecified)", "CAT": "false (0)"}
{"COMPOUND": "CCn1cc(S(=O)(=O)c2cccc(C)c2)c(=O)c2cc(F)c(N3CCN(C)CC3)cc21", "CAT": "false (0)"}
{"COMPOUND": "C=CCN(CC=C)C(=O)COC(=O)c1n[nH]c2ccccc12", "CAT": "false (0)"}
{"COMPOUND": "CCOC(=O)c1c(N=CN(C)C)c(C#N)c2n1CCCC2", "CAT": "false (0)"}
{"COMPOUND": "O=C(CCOc1ccccc1)NCc1ccccc1", "CAT": "false (0)"}
{"COMPOUND": "CO/N=C(/CS(=O)(=O)c1ccc(Br)cc1)c1ccc(OC)cc1", "CAT": "false (0)"}
{"COMPOUND": "COc1ccccc1C(=O)Nc1ccnn1C1CCN(C(=O)C(C)(C)C)CC1", "CAT": "false (0)"}
{"COMPOUND": "CC(C)c1c(C(=O)N/N=C/c2ccc(-c3ccccc3)cc2)nnn1-c1nonc1N", "CAT": "false (0)"}
{"COMPOUND": "Cc1ccc(Nc2nc(Cl)c(C=O)s2)cc1", "CAT": "true (1)"}
{"COMPOUND": "CC(CCc1ccccc1)NC(=O)COC(=O)c1ccc(F)cc1 (stereo unspecified)", "CAT": "false (0)"}
{"COMPOUND": "Cc1nonc1C(=O)N/N=C/c1ccc(O)cc1", "CAT": "true (1)"}
{"COMPOUND": "Cn1c(=O)[nH]c(=O)c2c1nc(N1CCN(C(c3ccccc3)c3ccccc3)CC1)n2CCO", "CAT": "false (0)"}
